# tgt: T1, recombinant HIS-tagged human nectin-4 (Acro Biosystems Cat. No. NE4-H52H3) (human, UniProt Q96NY8 32-349)
# T1 construct: Bought protein; not shown: HIS tag
# T1 sequence: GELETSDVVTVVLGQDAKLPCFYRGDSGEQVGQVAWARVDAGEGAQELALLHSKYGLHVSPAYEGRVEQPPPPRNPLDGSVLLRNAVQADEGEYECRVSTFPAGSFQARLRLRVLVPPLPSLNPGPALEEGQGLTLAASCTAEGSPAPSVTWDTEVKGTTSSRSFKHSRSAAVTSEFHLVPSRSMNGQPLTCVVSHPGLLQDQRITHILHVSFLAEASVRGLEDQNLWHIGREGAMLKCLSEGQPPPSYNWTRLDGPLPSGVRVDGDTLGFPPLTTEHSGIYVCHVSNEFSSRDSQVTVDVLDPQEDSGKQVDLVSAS
# assay.text: SPR Biacore 8K+, ADC captured via anti-human Fc, nectin-4 analyte, 37 C;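 also: Nectin-4 injected over captured ADC at 0 to 600 nM for 2 min association, then 10 min dissociation, with a reference flow cell lacking ADC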

| binder | u | koff |
| --- | --- | --- |
| Ab5 ADC (Ab5 conjugated as in Formula XI, DAR of 8) (antibody, human IgG1, kappa, L234A L235A, V domains shown, camptothecin analog linker-payload of Formula XI on cysteine thiols after full reduction, DAR of 8 per antibody; positions not given, Antibody-drug conjugate of Ab5; also called Ab5 (ADC column)) VH: QVQLVQSGAEVKKPGASVKVSCKASGYTFTSYYVHWVRQAPGQGLEWMGIINPSIISTSYAQKFQARVTMTRDTSTSTVYMELSSLRSEDTAVYYCARGLNFDAFDIWGQGTLVTVSS VL: DIQLTQSPSFLSASVGDRVTITCRASQGISSYLAWYQQKPGKAPKLLIYAASTLQSGVPSRFSGSGSGTEFTLTISSLQPEDFATYYCQQLNNYPFTFGQGTKVEIKR | s⁻¹ | 0.00346 |
| Ab8 ADC (Ab8 conjugated as in Formula XI, DAR of 8) (antibody, human IgG1, lambda, L234A L235A, V domains shown, camptothecin analog linker-payload of Formula XI on cysteine thiols after full reduction, DAR of 8 per antibody; positions not given, Antibody-drug conjugate of Ab8; also called Ab8 (ADC column)) VH: QVQLVQSGAEVKKPGASVKVSCKASGYTFTSYYIHWVRQAPGQGLEWMGIINPISGRTSSAQKFQGRVTMTRDTSTSTVYMELSSLRSEDTAVYYCAKEGVGGELLRAFDIWGQGTLVTVSS VL: QSVLTQPPSVSEAPRQRVTISCSGSSSNIGNNAVNWYQQLPGKAPKLLIYYDDLLPSGVSDRFSGSKSGTSASLAISGLQSEDEADYYCAAWDDSLNGFVFGGGTKLTVLG | s⁻¹ | 0.0338 |
| Ab3 ADC (Ab3 conjugated as in Formula XI, DAR of 8) (antibody, human IgG1, kappa, L234A L235A, V domains shown, camptothecin analog linker-payload of Formula XI on cysteine thiols after full reduction, DAR of 8 per antibody; positions not given, Antibody-drug conjugate of Ab3; also called Ab3 (ADC column)) VH: EVQLVESGGGLVKPGGSLRLSCAASGFNLNHYNMNWVRQAPGKGLEWVSSVSSGGGFRYYADSVRGRFTISRDNAKNSLYLQMNSLRAEDTAVYYCARGAVFHDAFDIWGQGTLVTVSS VL: DIQLTQSPSFLSASVGDRVTITCRASQDISSYLAWYQQKPGKAPKLLIYVASTLQSGVPSRFSGSGSGTEFTLTISSLQPEDFATYYCQQINSYPFTFGQGTKVEIKR | s⁻¹ | 0.000437 |
| Ab6 ADC (Ab6 conjugated as in Formula XI, DAR of 8) (antibody, human IgG1, lambda, L234A L235A, V domains shown, camptothecin analog linker-payload of Formula XI on cysteine thiols after full reduction, DAR of 8 per antibody; positions not given, Antibody-drug conjugate of Ab6; also called Ab6 (ADC column)) VH: QVQLVQSGAEVKKPGASVKVSCKASGYTFTGYYMHWVRQAPGQGLEWMGIINPSGGSTTYAQKFQGRVTMTRDTSTSTVYMELSSLRSEDTAVYYCARGRLGTYFDYWGQGTLVTVSS VL: SYVLTQPPSVSVAPGQTARITCGGNNIGSKSVHWYQQKPGQAPVLVVYDDSDRPSGIPERFSGSNSGNTATLTISRVEAGDEADYYCQVWDRSSDQVVFGGGTKLTVLG | s⁻¹ | 0.163 |

These measurements were taken from patent US20250000991A1.
